IC50 reference
# ASSAY SYSTEM: KCNJ5^L168R (Homo sapiens, UniProt P48544, L168R)
# Sequence (P48544 1-419 L168R): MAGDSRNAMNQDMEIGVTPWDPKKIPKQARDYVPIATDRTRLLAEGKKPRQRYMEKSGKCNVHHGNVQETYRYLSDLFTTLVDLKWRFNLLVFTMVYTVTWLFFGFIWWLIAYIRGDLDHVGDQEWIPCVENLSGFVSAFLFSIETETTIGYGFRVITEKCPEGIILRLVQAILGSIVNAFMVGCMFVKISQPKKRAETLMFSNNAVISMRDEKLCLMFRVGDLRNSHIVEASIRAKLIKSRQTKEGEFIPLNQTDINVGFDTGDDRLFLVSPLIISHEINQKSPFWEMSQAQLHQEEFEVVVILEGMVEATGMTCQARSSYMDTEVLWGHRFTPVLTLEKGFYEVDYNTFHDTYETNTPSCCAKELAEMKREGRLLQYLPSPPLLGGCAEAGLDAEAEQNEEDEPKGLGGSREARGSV
# ASSAY EXPLANATION: Cell viability assay (ATP, CellTiter-Glo): rescue of KCNJ5^L168R-induced lethality in inducible HEK293 cells
# CONDITION: 10-point dilution 20 to 0.0391 μM, N=3, four-parameter fit
Your answer should be a plain number; it is taken to be in µM.

Observe how each entry below is paired with its result.
- SMILES RECORD: "CC[C@H]1OC(=O)[C@H](C)[C@@H](O[C@H]2C[C@@](C)(OC)[C@@H](O)[C@H](C)O2)[C@H](C)[C@@H](O[C@@H]2O[C@H](C)C[C@H](N(C)C(C)C)[C@H]2O)[C@@]2(C)CC(C)=C(O2)[C@H](C)[C@@H](O)[C@]1(C)O"
  IC50 (µM): 1.99
- SMILES RECORD: "CC[C@H]1OC(=O)[C@H](C)[C@@H](O[C@H]2C[C@@](C)(OC)[C@@H](O)[C@H](C)O2)[C@H](C)[C@@H](O[C@@H]2O[C@H](C)C[C@H](NC)[C@H]2O)[C@](C)(O)C[C@@H](C)/C(=N\\OCOCCOC)[C@H](C)[C@@H](O)[C@]1(C)O"
  IC50 (µM): 1.18
- SMILES RECORD: "CC[C@H]1OC(=O)[C@H](C)[C@@H](O[C@H]2C[C@@](C)(O)[C@@H](O)[C@H](C)O2)[C@H](C)[C@@H](O[C@@H]2O[C@H](C)C[C@H](N(C)C)[C@H]2O)[C@](C)(O)C[C@@H](C)C(=O)[C@H](C)[C@@H](O)[C@]1(C)O"
  IC50 (µM): 12.2

Switching to the query record.
Which IC50 is listed for CC[C@H]1OC(=O)[C@H](C)[C@@H](O[C@H]2C[C@@](C)(OC)[C@@H](O)[C@H](C)O2)[C@H](C)[C@@H](O[C@@H]2O[C@H](C)C[C@H](N(C)C)[C@H]2O)[C@](C)(O)C[C@@H](C)C(=NO)[C@H](C)[C@@H](O)[C@]1(C)O ?
8.13
